Test: Plasma pharmacokinetics of the flavonols after oral co-administration
Format: in vivo, Sprague-Dawley (SD) rats
Details: male, Sprague-Dawley, rat, 5 mg/kg
Attribute measured: half-life (h)

[I] COc1ccc(-c2oc3ccccc3c(=O)c2OC)cc1 [compound no. 37, 3,4’-Dimethoxyflavone]
[II] COc1ccc2oc(-c3ccc(OC)c(OC)c3)c(OC)c(=O)c2c1 [compound no. 46, 3,6,3’,4’-Tetramethoxyflavone]
Lab notebook, comparison: I versus II , higher half-life goes to which? # answer = label of selected item II
(II: 2.24 h, I: 0.54 h)

###

Molecular target: BCRP (Homo sapiens, UniProt Q9UNQ0)
Sequence (Q9UNQ0 whole entry): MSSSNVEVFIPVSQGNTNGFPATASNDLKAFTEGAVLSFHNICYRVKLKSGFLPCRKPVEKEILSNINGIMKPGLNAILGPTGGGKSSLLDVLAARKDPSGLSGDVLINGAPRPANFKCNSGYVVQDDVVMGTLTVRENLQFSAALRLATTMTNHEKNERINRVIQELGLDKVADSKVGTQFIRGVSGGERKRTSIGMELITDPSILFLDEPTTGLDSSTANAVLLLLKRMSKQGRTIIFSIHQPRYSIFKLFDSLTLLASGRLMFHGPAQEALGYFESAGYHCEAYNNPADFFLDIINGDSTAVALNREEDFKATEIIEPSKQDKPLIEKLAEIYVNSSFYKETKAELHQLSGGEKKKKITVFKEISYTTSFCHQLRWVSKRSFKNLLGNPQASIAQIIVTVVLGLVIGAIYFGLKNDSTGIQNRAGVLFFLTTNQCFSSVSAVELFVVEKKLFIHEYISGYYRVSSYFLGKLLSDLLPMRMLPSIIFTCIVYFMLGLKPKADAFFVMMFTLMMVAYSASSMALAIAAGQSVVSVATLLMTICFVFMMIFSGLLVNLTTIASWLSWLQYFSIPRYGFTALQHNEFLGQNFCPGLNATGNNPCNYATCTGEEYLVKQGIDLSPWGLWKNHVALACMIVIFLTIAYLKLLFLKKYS
Assay: BCRP inhibition, prazosin accumulation assay in MDCKII-BCRP cells
Conditions: IC50 on BCRP activity, prazosin 5 µM, 20 min, MDCKII-BCRP
pIC50: −log10 of the molar value.
Attribute measured: pIC50

Record excerpt, results attached:
COc1ccc2c(=O)c(OC)c(-c3ccc(O)c(OC)c3)oc2c1 [compound no. 43, 4’-Hydroxy-3,7,3’-trimethoxyflavone]	> 5.30
COc1ccc(-c2oc3cc(O)cc(O)c3c(=O)c2OC)cc1O [compound 48, 5,7,3’-Trihydroxy-3,4’-dimethoxyflavone]	> 5.30
COc1ccc(-c2oc3cc(OC)c(OC)c(OC)c3c(=O)c2OC)cc1 [compound 53, 3,5,6,7,4’-Pentamethoxyflavone]	> 5.30
COc1ccc(-c2oc3cc(OC)c(O)c(OC)c3c(=O)c2OC)cc1O [compound 52]	> 5.30
COc1ccc2oc(-c3ccc(OC)c(OC)c3)c(OC)c(=O)c2c1 [compound no. 46, 3,6,3’,4’-Tetramethoxyflavone]	> 5.30
O=c1c(O)c(-c2ccc(O)cc2O)oc2cc(O)cc(O)c12 [compound 31, 3,5,7,2’,4’-Pentahydroxyflavone]	< 5.00

For the compound COc1cc(O)c2c(=O)c(OC)c(-c3ccc(OC)c(OC)c3)oc2c1 [compound 50, 5-Hydroxy-3,7,3’,4’-tetramethoxyflavone] , what pIC50 is on record? > 5.30

For the compound COc1ccc2oc(-c3cccc(OC)c3OC)c(OC)c(=O)c2c1 [compound 47, 3,6,2’,3’-Tetramethoxyflavone] , what pIC50 is on record? < 5.00

For the compound COc1ccc(-c2oc3cc(OC)c(OC)c(OC)c3c(=O)c2OC)cc1OC [compound no. 54, 3,5,6,7,3’,4’-Hexamethoxyflavone] , what pIC50 is on record? > 5.30
